molecules and their reported growth
Test system: SK-OV-3 ovarian
TEST DESCRIPTION: NCI-60 one-dose screen, 48 h (100 = growth as untreated, 0 = no growth, -100 = all killed)
CONDITION LABEL: 10 µM unless noted
About 83,000 compounds went through this panel and 20% of them were active in at least one assay; those are over-represented in the sample as a whole.
Write the value in % as a bare number.

CC1(C)CC[C@]2(C(=O)Nc3ccccn3)CC[C@]3(C)C(=CC[C@@H]4[C@@]5(C)C/C(=C/c6ccncc6)C(=O)C(C)(C)[C@@H]5CC[C@]43C)[C@@H]2C1    71.8

For the molecule CN1CCN(CC#CCn2c3c(c4ccccc42)C[C@]2(C)[C@H]4CC[C@@H]5[C@H]6[C@H]7OC(=O)[C@@]6(CCC7(C)C)CC[C@@]5(C)[C@]4(C)CC[C@H]2C3(C)C)CC1 , give its reported growth.
106

For the molecule Cn1cc(-c2csc(-c3cn(CCNC(=O)OC(C)(C)C)c4ccccc34)n2)c2cccnc21 , give its reported growth.
94.9
